# credit: patent US20230017786A1

- experimentalSystem: human NMDA receptor GluN1-GluN2C (Homo sapiens, UniProt Q05586+Q14957)
- Construct: expressed in transfected cells; host or cells: CHO
- Sequence (Q14957 20-1233, other chains not shown): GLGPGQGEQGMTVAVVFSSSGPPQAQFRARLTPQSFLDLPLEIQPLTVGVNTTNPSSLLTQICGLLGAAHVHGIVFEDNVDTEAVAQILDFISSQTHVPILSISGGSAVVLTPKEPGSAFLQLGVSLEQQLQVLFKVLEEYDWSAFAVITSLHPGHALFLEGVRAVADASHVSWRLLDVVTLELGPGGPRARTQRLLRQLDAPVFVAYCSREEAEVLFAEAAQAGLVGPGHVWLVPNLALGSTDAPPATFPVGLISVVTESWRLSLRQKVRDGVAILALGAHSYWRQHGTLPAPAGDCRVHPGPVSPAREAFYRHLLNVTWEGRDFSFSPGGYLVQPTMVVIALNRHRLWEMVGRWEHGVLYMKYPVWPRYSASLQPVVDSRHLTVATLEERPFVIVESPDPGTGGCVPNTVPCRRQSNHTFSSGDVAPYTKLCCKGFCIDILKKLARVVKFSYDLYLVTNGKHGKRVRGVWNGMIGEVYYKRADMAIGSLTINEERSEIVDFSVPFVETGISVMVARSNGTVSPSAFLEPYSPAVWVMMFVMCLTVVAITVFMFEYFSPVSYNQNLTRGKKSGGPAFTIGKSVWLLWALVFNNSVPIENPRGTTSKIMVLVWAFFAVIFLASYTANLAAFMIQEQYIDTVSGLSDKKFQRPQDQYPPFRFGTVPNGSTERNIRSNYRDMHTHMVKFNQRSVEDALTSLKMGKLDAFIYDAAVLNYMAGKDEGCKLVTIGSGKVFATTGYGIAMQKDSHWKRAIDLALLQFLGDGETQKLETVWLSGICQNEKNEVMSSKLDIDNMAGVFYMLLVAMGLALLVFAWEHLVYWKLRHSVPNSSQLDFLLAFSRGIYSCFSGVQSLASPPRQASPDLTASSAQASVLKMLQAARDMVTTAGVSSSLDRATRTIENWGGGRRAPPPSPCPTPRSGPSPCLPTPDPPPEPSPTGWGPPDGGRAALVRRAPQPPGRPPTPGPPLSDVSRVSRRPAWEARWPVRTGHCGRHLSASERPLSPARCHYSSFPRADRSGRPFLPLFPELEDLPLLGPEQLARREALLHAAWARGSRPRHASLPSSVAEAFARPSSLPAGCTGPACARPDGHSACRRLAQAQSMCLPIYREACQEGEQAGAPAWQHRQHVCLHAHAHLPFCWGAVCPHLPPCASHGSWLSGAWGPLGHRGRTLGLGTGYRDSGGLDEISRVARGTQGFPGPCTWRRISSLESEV
- protocolDescription: FLIPR calcium assay, test item effect on L-glutamate CRC, GluN1-GluN2C-CHO
- Type: cell-based
- condition: with test item 195 nM
Counter-ions that a name gives are not always drawn.
measurementName: L-glutamate CRC HillSlope
One number for each entry.

| compound | measValue |
| --- | --- |
| CCC(=O)C(C[C@H](C)N(C)C)(c1ccccc1)c1ccccc1 | 1.4 |
| CC12CC3CC(C)(C1)CC(N)(C3)C2 [Memantine, memantine hydrochloride] | 1.5 |
| CNC1(c2ccccc2Cl)CCCCC1=O (racemic) [(±)-Ketamine, (±)-ketamine hydrochloride] | 1.5 |

Now let's try a different one.
Prompt: Recorded L-glutamate CRC HillSlope for COc1ccc2c(c1)[C@]13CCCC[C@@H]1[C@H](C2)N(C)CC3 [Dextromethorphan, hydrobromide monohydrate] , please?
Response: 1.4
